Measured growth inhibition accompanies every entry in the list below.
assay_notes: inhibition of 3D7 malaria parasite growth – strain 3D7 (AID 2306);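 note: 0% = DMSO wells and 100% = chloroquine plus artemisinin control wells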
condition_set: P. falciparum 3D7 erythrocytic growth, LDH absorbance, 72 h; at 2 µM; active compounds read high
Give the value in % but do not write % after it.

In: Assign growth inhibition to the following record: "O=C(NOCCOc1ccccc1)c1ccccc1"
Out: 98

###

assay_notes: antimalarial activity against Dd2 strain (AID 2302);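 note: 0% = DMSO untreated growth and 100% = chloroquine plus artemisinin killed control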
condition_set: P. falciparum Dd2 in RBCs, LDH growth readout, 72 h; at 2 µM; active compounds read high
Active and inactive are the calls of the source.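 How the source made its calls: active means growth inhibition above 50% at the single 2 µM test dose, taken to imply half-maximal potency below 2 µM; inactive means the rest.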
Measured growth inhibition accompanies every entry in the list below.

In the examples that follow, each entry is paired with its recorded growth inhibition.
[
  {
    "molecule": "Cc1cc(N[C@@H](Cc2ccccc2)C(=O)NCCOc2ccccc2)nc(NCCc2ccc(F)cc2)n1",
    "growth inhibition": "86% (active)"
  },
  {
    "molecule": "COc1cc2c(cc1OCCN1CCC(N3CCCCC3)CC1)N(C(=O)/C=C/c1ccccc1OC(F)(F)F)CC2",
    "growth inhibition": "93% (active)"
  },
  {
    "molecule": "C=CCOC(=O)N1CCC(CNCc2cccc(-c3cccc(-c4nc5ccccc5[nH]4)c3)c2)C1 (centres undefined)",
    "growth inhibition": "46% (inactive)"
  },
  {
    "molecule": "Cc1cc2ncn(-c3nccc(NCc4ccc(F)c(C)c4)n3)c2cc1C",
    "growth inhibition": "82% (active)"
  },
  {
    "molecule": "Nc1c2c(nc3ccc(C(=O)Nc4cc(I)c(O)c(I)c4)cc13)CCCC2",
    "growth inhibition": "64% (active)"
  }
]

In: Assign growth inhibition to the following record: "COc1ccc(CNc2nc(NCc3ccccc3)c3cc(OC)c(OC)cc3n2)cc1OC"
Out: 99% (active)

In: Assign growth inhibition to the following record: "COC(=O)c1ccc2c(-c3nc4ccc(OC)cc4[nH]3)c[nH]c2c1"
Out: 31% (inactive)

In: Assign growth inhibition to the following record: COc1cccc(CN2CCC(N3CCc4cc(NC(=O)c5cc(C)on5)ccc43)C2)c1OC (centres undefined)
Out: 92% (active)

In: Assign growth inhibition to the following record: "O=C(N1CCN(c2ccnc3cc4c(cc23)N(Cc2ccccc2)CC4)CC1)C(F)(F)F"
Out: 100% (active)

###

assay_notes: inhibition of 3D7 malaria parasite growth – strain 3D7 (AID 2306);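 note: 0% = DMSO wells and 100% = chloroquine plus artemisinin control wells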
condition_set: P. falciparum 3D7 erythrocytic growth, LDH absorbance, 72 h; at 2 µM; active compounds read high
endpoint_name: growth inhibition (%)
Give the value in % but do not write % after it.

[
  {
    "compound": "Cc1[nH]nc2ccc(-c3cc(OC[C@@H](N)Cc4ccccc4)cnc3-c3ccc(OCc4cccc(F)c4)cc3)cc12",
    "growth inhibition / %": 98
  }
]

In: Assign growth inhibition to the following record: "O=C(/C=C/c1ccc(Cl)c(Cl)c1)N1CCC(CN2CCC(Cc3nc4ccccc4[nH]3)CC2)CC1"
Out: 101

In: Assign growth inhibition to the following record: "Oc1ccc(-c2cc(COc3ccccc3C(F)(F)F)c(C3=CCNCC3)cc2COc2ccccc2C(F)(F)F)cc1"
Out: 100

In: Assign growth inhibition to the following record: "Brc1ccsc1-c1nc(NCCC(c2ccccc2)c2ccccc2)no1"
Out: 94

In: Assign growth inhibition to the following record: NCC1CCCN1Cc1cccc(-c2cccc(-c3nc4ccc(F)cc4[nH]3)c2)c1 (stereo not drawn)
Out: 101

In: Assign growth inhibition to the following record: "CS(=O)(=O)CCNCc1nc(-c2ccc3c(Nc4ccc(Cl)cc4F)ccnc3c2)cs1"
Out: 88

In: Assign growth inhibition to the following record: CN(C)CC1CCCN1Cc1ccccc1-c1cnn(C)c(=O)c1Oc1ccc(F)cc1 (stereo not drawn)
Out: 91

Ref: PubChem BioAssay
